# EXPERIMENTAL_TARGET: purified recombinant human PARP (Homo sapiens)
# Construct: purchased Trevigan (Gaithersburg, Md.)
# Sequence (P09874 whole entry): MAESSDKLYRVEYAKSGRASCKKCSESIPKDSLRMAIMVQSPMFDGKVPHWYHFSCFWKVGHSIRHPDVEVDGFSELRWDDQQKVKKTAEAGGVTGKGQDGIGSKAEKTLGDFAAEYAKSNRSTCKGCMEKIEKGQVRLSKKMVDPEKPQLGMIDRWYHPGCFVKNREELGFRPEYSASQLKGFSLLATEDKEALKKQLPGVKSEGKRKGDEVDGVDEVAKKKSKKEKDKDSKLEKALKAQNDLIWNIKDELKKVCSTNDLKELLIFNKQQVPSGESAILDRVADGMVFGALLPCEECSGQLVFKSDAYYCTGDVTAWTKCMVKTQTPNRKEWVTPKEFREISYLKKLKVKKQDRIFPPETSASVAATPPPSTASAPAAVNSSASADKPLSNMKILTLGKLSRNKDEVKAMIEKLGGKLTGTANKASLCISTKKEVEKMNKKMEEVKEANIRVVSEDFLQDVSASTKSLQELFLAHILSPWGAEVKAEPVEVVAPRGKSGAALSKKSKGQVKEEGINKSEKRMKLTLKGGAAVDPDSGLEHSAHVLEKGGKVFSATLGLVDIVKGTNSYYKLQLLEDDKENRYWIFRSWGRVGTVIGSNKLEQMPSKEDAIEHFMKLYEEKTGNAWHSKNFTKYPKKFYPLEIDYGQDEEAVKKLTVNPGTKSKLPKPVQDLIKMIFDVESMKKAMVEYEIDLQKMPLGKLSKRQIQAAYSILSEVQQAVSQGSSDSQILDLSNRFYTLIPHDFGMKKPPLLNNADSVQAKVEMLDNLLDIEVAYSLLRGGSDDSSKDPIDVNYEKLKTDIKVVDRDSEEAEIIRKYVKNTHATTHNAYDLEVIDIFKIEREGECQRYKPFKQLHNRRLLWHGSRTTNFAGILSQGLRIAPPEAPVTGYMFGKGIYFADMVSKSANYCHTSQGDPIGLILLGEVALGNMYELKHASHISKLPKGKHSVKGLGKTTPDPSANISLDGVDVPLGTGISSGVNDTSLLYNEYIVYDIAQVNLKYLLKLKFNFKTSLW
# ASSAY_PROTOCOL: PARP enzyme assay (IC50)
# Type: biochemical
# TEST_SETTINGS: approximate IC50 values, [3H]NAD, read-out: IC50
pIC50: −log10 of the molar value.
Output Y for pIC50 not less than 6; output N otherwise.

>  <STRUCTURE_SMILES_STRING>
O=C1NN=Cc2c(-c3ccccc3)[nH]c3cccc1c23

>  <EXPERIMENTAL_TARGET>
purified recombinant human PARP (Homo sapiens)

>  <GROUP_LABEL>
Y

$$$$
>  <STRUCTURE_SMILES_STRING>
O=C1NN=Cc2cn(Cc3ccccc3)c3cccc1c23

>  <EXPERIMENTAL_TARGET>
purified recombinant human PARP (Homo sapiens)

>  <GROUP_LABEL>
N

$$$$
>  <STRUCTURE_SMILES_STRING>
CC(C)(C)OC(=O)[C@@H]1CCCN1Cc1nc2cccc3c2n1CCNC3=O

>  <EXPERIMENTAL_TARGET>
purified recombinant human PARP (Homo sapiens)

>  <GROUP_LABEL>
Y

$$$$
>  <STRUCTURE_SMILES_STRING>
CCN(CC)CCCNC(=O)c1cccc(-c2nc3cccc4c3n2CCNC4=O)c1

>  <EXPERIMENTAL_TARGET>
purified recombinant human PARP (Homo sapiens)

>  <GROUP_LABEL>
Y

$$$$
>  <STRUCTURE_SMILES_STRING>
CCN1CCN(CC2=NNC(=O)c3cccc4[nH]cc2c34)CC1

>  <EXPERIMENTAL_TARGET>
purified recombinant human PARP (Homo sapiens)

>  <GROUP_LABEL>
Y

$$$$

Ref: patent US7235557B2
